# Test system: KRAS G12C-dependent Ba/F3 cells
# Procedure text: Ba/F3 proliferation assay, KRAS G12C
# Assay type: cell-based
# Setup conditions: Mus musculus, BaF3, 72 h, AlamarBlue
Kindly supply the reported pIC50 values for the records listed here.
Entry type: numeric. Quantity: pIC50, the -log10 of concentration in molar units.

Request: Give a short answer stating reported pIC50 for C[C@@H]1CN(c2cc(O[C@@H](C)[C@@H]3C[C@@H](F)CN3C)nc(-c3noc4c3CCC[C@@]43CCCc4sc(N)c(C#N)c43)n2)CC2(CC2)N1 .
Response: 6.43

Request: Indicate the recorded pIC50 value for this compound: C[C@H](Oc1cc(-n2cc(-c3cncs3)nn2)nc(-c2noc3c2CCC[C@@]32CCCc3sc(N)c(C#N)c32)n1)[C@@H]1CCCN1C
Response: 7.77

Request: Please supply the value of reported pIC50 for the item C[C@H](Oc1cc(C2CCOCC2)nc(-c2noc3c2CCC[C@@]32CCCc3sc(N)c(C#N)c32)n1)[C@@H]1CCCN1C
Response: 7.74

Request: Using known records, supply pIC50 for C[C@H](Oc1cc(N2CCN(C)C3(CC3)C2)nc(-c2noc3c2CCC[C@@]32CCCc3sc(N)c(C#N)c32)n1)[C@@H]1CCCN1C
Response: 6.63

Request: Check the records and state pIC50 for CO[C@H]1CCN(C)[C@@H]1[C@H](C)Oc1cc(N2CCNC3(CC3)C2)nc(-c2onc3c2CCC[C@@]32CCCc3sc(N)c(C#N)c32)n1
Response: 6.89

Request: Return reported pIC50. Input compound: [2H]C([2H])([2H])N1C[C@H](F)C[C@H]1[C@H](C)Oc1cc(N2CCN(C)C3(CC3)C2)nc(-c2noc3c2CCC[C@@]32CCCc3sc(N)c(C#N)c32)n1
Response: 6.57

Request: Supply measured pIC50 of C[C@H](Oc1cc(N2CCN(C)C3(CCOC3)C2)nc(-c2noc3c2CCC[C@@]32CCCc3sc(N)c(C#N)c32)n1)[C@@H]1C[C@@H](F)CN1C (stereo partly drawn) in your reply.
Response: 6.41

Request: Note down pIC50 recorded for C[C@H](Oc1cc(C2CCCO2)nc(-c2noc3c2CCC[C@@]32CCCc3sc(N)c(C#N)c32)n1)[C@@H]1CCCN1C (stereo partly drawn)
Response: 7.55

Request: Name the recorded pIC50 of the compound listed here: C[C@H](Oc1cc(-n2ccc(C(=O)O)n2)nc(-c2noc3c2CCC[C@@]32CCCc3sc(N)c(C#N)c32)n1)[C@@H]1CCCN1C
Response: 5.04

Request: Look up and state reported pIC50 for C[C@H](Oc1nc(-c2noc3c2CCC[C@@]32CCCc3sc(N)c(C#N)c32)nc(N2CCNC3(CC3)C2)c1Cl)[C@@H]1C[C@@H](F)CN1C
Response: 6.45

Request: Indicate the recorded pIC50 value for this compound: C[C@H](Oc1cc(N2CCNC[C@]23CCOC3)nc(-c2onc3c2CCC[C@@]32CCCc3sc(N)c(C#N)c32)n1)[C@@H]1CCCN1C
Response: 6.65

Request: Report measured pIC50; entry is COCCNC(=O)c1ccn(-c2cc(O[C@@H](C)[C@@H]3[C@@H](OC)CCN3C)nc(-c3onc4c3CCC[C@@]43CCCc4sc(N)c(C#N)c43)n2)n1
Response: 8.70

Request: Indicate the recorded pIC50 value for this compound: C[C@H](Oc1cc(-c2ccn([C@H]3CCCOC3)n2)nc(-c2noc3c2CCC[C@@]32CCCc3sc(N)c(C#N)c32)n1)[C@@H]1CCCN1C
Response: 7.47

Request: Output measured pIC50 for this item: C[C@H](Oc1cc(N2CCN(C)C3(CC3)C2)nc(-c2onc3c2CCC[C@@]32CCCc3sc(N)c(C#N)c32)n1)[C@@H]1C[C@@H](F)CN1C
Response: 6.21

Request: Please indicate pIC50 recorded for C[C@H](Oc1cc(-n2ccnc2Cl)nc(-c2noc3c2CCC[C@@]32CCCc3sc(N)c(C#N)c32)n1)[C@@H]1CCCN1C
Response: 7.80
